Reported Particle size values are given for each entry in this list.
Assay: particle size and polydispersity index of drug micelles over time (ZetaSizer)
Format: physicochemical
Conditions: docetaxel:compound 1:3, docetaxel 0.5 mg/mL; time 24 h
Give a bare numeral; the unit nm is implied.

The following molecules have reported results that may help.
COc1cc(C)c(/C=C/C(C)=C/C=C/C(C)=C/C(=O)N2CCN(c3ccc(S(=O)(=O)[O-])cc3)CC2)c(C)c1C.[Na+] ... 66.18
COc1cc(C)c(/C=C/C(C)=C/C=C/C(C)=C/C(=O)N(CCS(=O)(=O)[O-])CC(N)=O)c(C)c1C.[Na+] ... 105.7
COc1cc(C)c(/C=C/C(C)=C/C=C/C(C)=C/C(=O)N2CCN(C(=O)c3ccc(S(=O)(=O)[O-])cc3)CC2)c(C)c1C.[K+] ... 122.0
COc1cc(C)c(/C=C/C(C)=C/C=C/C(C)=C/C(=O)N(C)[C@H]2CC[C@H](CS(=O)(=O)[O-])CC2)c(C)c1C.[Na+] ... 96.76
COc1cc(C)c(/C=C/C(C)=C/C=C/C(C)=C/C(=O)N2CCC(CCS(=O)(=O)[O-])CC2)c(C)c1C.[Na+] ... 105.0

// returns reported Particle size for input "COc1cc(C)c(/C=C/C(C)=C/C=C/C(C)=C/C(=O)N(C)CCS(=O)(=O)[O-])c(C)c1C.[Na+]"
6.20

* * *

Assay: particle size and polydispersity index of drug micelles over time (ZetaSizer)
Type: physicochemical
Details: docetaxel:compound 1:3, docetaxel 0.5 mg/mL; time 0 h
Description: Micellar size was measured using a ZetaSizer from Malvern Panalytical. A stock solution of docetaxel in methanol was mixed with a stock solution of compound 1 in a round bottom flask. The mixture was evaporated to dryness in a rotary evaporator. Final drying was performed in a desiccator to remove residual solvent. Hydration of the dried film was performed by adding water for injection (1.0 mL) to a concentration of 1 mg/mL of docetaxel. […]
Field 'label' (enum: 1 / -1). Set to 1 when Particle size is strictly under 60 nm; else -1.

These recorded examples may help you get a feel for the data.
COc1cc(C)c(/C=C/C(C)=C/C=C/C(C)=C/C(=O)N2CCN(C(=O)c3ccc(S(=O)(=O)[O-])cc3)CC2)c(C)c1C.[K+] ... -1
COc1cc(C)c(/C=C/C(C)=C/C=C/C(C)=C/C(=O)N2CCC(CCS(=O)(=O)[O-])CC2)c(C)c1C.[Na+] ... 1
COc1cc(C)c(/C=C/C(C)=C/C=C/C(C)=C/C(=O)N(C)[C@H]2CC[C@H](CS(=O)(=O)[O-])CC2)c(C)c1C.[Na+] ... -1

Attention now shifts to the item below.
State whether 60 nm exceeds Particle size recorded for "COc1cc(C)c(/C=C/C(C)=C/C=C/C(C)=C/C(=O)N(C)CCS(=O)(=O)[O-])c(C)c1C.[Na+]" .
1

* * *

Test: particle size and polydispersity index of drug micelles over time (ZetaSizer)
Format: physicochemical
Details: docetaxel:compound 1:3, docetaxel 0.5 mg/mL; time 4 h
Property Name: Polydispersity index
Reply with the value as a number alone.

COc1cc(C)c(/C=C/C(C)=C/C=C/C(C)=C/C(=O)N2CCN(c3ccc(S(=O)(=O)[O-])cc3)CC2)c(C)c1C.[Na+] ... 0.28
COc1cc(C)c(/C=C/C(C)=C/C=C/C(C)=C/C(=O)N(CCS(=O)(=O)[O-])CC(N)=O)c(C)c1C.[Na+] ... 0.13
COc1cc(C)c(/C=C/C(C)=C/C=C/C(C)=C/C(=O)N(C)CCS(=O)(=O)[O-])c(C)c1C.[Na+] ... 0.27
COc1cc(C)c(/C=C/C(C)=C/C=C/C(C)=C/C(=O)N2CCN(C(=O)c3ccc(S(=O)(=O)[O-])cc3)CC2)c(C)c1C.[K+] ... 0.17
COc1cc(C)c(/C=C/C(C)=C/C=C/C(C)=C/C(=O)N(C)[C@H]2CC[C@H](CS(=O)(=O)[O-])CC2)c(C)c1C.[Na+] ... 0.25

Let's switch to this molecule now.
// returns reported Polydispersity index for input "COc1cc(C)c(/C=C/C(C)=C/C=C/C(C)=C/C(=O)N2CCC(CCS(=O)(=O)[O-])CC2)c(C)c1C.[Na+]"
0.11
